- test_details: CCK8 cell viability assay in BHK-21 cells
- Type: cell-based, hamster
- condition_parameters: hamster, CC50 (CCK8 cell viability)

| molecule | CC50 at 24 h |
| --- | --- |
| Cn1cc(C2=C(c3cn(C4CCN(Cc5ccccn5)CC4)c4ccccc34)C(=O)NC2=O)c2ccccc21 [enzastaurin] | > 160 µM |

* * *

- test_details: CCK8 cell viability assay in BHK-21 cells
- Type: cell-based, hamster
- condition_parameters: hamster; BHK-21 cells; 24 h; read-out: CC50 (CCK8 cell viability)

| compound_string | unit_abbreviation | CC50 at 24 h |
| --- | --- | --- |
| CC(=O)c1c(O)c(C)c(O)c(Cc2c(O)c3c(c(C(=O)/C=C/c4ccccc4)c2O)OC(C)(C)C=C3)c1O | µM | 1.43 |

Source: paper PMC9603170
